The reported numbers originate from ChEMBL document CHEMBL1156300.

# Method Description: Selectivity ratio Ki for PDE4D4 to Ki for PDE4B3
Listing: Ratio Ki of selected compounds

Cn1cccc1C(=O)N1CCN(CCCNc2nnc(-c3cccc(F)c3)c3c2cc2ccccn23)CC1 ... 12
CC(=O)N1CCN(CCCNc2nnc(-c3cccc(F)c3)c3c2cc2ccccn23)CC1 ... > 53
O=C(C1CCCC1)N1CCN(CCCNc2nnc(-c3cccc(F)c3)c3c2cc2ccccn23)CC1 ... 4

Report Ratio Ki for "Cc1cc2c(NCCCN3CCN(C(=O)c4csnn4)CC3)nnc(-c3cccc([N+](=O)[O-])c3)c2n1C" please.
50

Report Ratio Ki for "O=[N+]([O-])c1cccc(-c2nnc(NCCCN3CCN(c4ncccn4)CC3)c3cc4ccccn4c23)c1" please.
11

Report Ratio Ki for "Brc1cccc(-c2nnc(NCCCN3CCN(c4ncccn4)CC3)c3cc4ccccn4c23)c1" please.
12

Report Ratio Ki for "O=C(c1cnccn1)N1CCN(CCCNc2nnc(-c3ccccc3)c3c2cc2ccccn23)CC1" please.
205
